- subjectOfTest: Alpha2A receptor (Homo sapiens (Human))
- Sequence (P08913 whole entry, looked up): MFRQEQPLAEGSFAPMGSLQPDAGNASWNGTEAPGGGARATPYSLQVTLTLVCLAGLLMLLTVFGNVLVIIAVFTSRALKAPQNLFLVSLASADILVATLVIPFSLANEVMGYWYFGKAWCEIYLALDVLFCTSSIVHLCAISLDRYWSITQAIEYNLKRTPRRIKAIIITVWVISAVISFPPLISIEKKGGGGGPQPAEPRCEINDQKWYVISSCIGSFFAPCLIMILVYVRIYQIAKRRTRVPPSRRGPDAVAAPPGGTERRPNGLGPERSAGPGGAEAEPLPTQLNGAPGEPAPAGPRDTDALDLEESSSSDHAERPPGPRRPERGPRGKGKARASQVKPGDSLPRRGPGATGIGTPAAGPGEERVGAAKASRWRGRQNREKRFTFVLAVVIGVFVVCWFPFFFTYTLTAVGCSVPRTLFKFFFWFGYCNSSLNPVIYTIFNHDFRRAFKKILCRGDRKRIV
- experimentSummary: FLIPR Ca^2+ flux agonist assay at Alpha2A
- Format: cell-based
Recorded measurements of Alpha 2A % Act @ Max Dose, one per entry
I only need the number, in %, no unit after it.

molecularstring=CCCN1C[C@H](C(=O)N2[C@@H](C)C[C@@H]2C)C=C2c3cccc4[nH]cc(c34)C[C@H]21 metricname="Alpha 2A % Act @ Max Dose" unitname=% resultvalue=102.86
molecularstring=CCN(CC)C(=O)[C@@H]1C=C2c3cccc4[nH]cc(c34)C[C@H]2N(CCCF)C1 metricname="Alpha 2A % Act @ Max Dose" unitname=% resultvalue=64.96

Please find the next compound below.
query: Tell me the measured Alpha 2A % Act @ Max Dose of "CCN(CC)C(=O)[C@@H]1C=C2c3cccc4[nH]cc(c34)C[C@H]2N(Cc2ccccc2OC)C1" , please.
result: 36.52
